# testedSystem: IRAK4 (human) (UniProt Q9NWZ3)
# Sequence (Q9NWZ3 whole entry, looked up): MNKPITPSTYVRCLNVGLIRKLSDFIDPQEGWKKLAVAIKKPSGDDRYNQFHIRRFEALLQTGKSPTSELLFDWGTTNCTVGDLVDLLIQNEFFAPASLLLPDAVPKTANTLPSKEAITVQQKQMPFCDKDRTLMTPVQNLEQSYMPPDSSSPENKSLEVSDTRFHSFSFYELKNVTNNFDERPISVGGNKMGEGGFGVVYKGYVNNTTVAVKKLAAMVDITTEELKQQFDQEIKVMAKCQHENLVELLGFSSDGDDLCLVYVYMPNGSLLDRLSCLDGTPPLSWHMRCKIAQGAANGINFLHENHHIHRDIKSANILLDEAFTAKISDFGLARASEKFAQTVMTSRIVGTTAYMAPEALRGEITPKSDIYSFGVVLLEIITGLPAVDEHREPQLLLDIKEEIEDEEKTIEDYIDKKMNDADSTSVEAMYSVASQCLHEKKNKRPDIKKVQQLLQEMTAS
# assayMethodText: radiometric filter-binding kinase assay
# testParameters: compound 0.01 µM
Measured residual activity, listed per entry.
The figure you give is taken to be in %; do not add the unit.

| compound | residual activity, % |
| --- | --- |
| COc1cc(O)c2c(c1)[C@H]1OC1C[C@H](O)[C@H](O)C(=O)/C=C\C[C@H](C)OC2=O (stereo not given in full) | 112 |
| CNc1nc(-c2ccc3c(N)n[nH]c3c2)cc(N2C[C@@H](C(=O)NC3CCCCC3)CC[C@H]2C)n1 | 109 |
| O=C(Nc1nc2cc(C(F)(F)F)cc(NC3CC3)n2n1)c1cccnc1 | 90 |
| COc1ccc(N(C(=O)Nc2c(C)cccc2C)c2cc(Nc3ccc(N4CCN(C)CC4)cc3)ncn2)c(OC)c1 | 90 |

Look up and state reported residual activity for CNC(=O)C1[C@H]2O[C@@](C)([C@@H]1N)n1c3ccccc3c3c4c(c5c6ccccc6n2c5c31)C(=O)NC4 (stereo not given in full)
7

----------
residual activity values for the compounds below.
# testedSystem: EPHA2 (human)
# assayMethodText: radiometric filter-binding kinase assay
# testParameters: compound 10.0 µM
Quick reminder: number only, in %, skip the unit.

| compound | observedMeasurement |
| --- | --- |
| CC1=C(CO)C(=O)O[C@@H]([C@@H](C)[C@H]2CC[C@H]3[C@@H]4C[C@H]5O[C@]56[C@@H](O)C=CC(=O)[C@]6(C)C4CC[C@]23C)C1 (stereo partly drawn) | 96 |
| Cc1ccc2c(c1)C(=O)[C@@]1(O)CCN(c3ccccc3)C1=N2 | 109 |

# ---- query compound ----
Answer with reported residual activity of O=C1Nc2nc(-c3c(O)cccc3OCC3CC3)cc(C3CCCNC3)c2CO1 (stereo not drawn)
84

----------
# testedSystem: TSSK1B (human) (UniProt Q9BXA7)
# Sequence (Q9BXA7 whole entry, looked up): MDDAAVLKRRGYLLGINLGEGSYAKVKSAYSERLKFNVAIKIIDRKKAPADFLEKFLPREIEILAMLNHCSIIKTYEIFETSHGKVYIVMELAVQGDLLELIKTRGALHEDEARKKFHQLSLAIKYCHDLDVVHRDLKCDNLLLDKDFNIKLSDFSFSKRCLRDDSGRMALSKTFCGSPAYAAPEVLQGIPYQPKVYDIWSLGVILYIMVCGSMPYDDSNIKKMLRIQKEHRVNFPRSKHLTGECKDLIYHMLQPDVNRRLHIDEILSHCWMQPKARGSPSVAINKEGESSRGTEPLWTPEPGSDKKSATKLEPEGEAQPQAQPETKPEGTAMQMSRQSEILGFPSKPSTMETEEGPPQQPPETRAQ
# assayMethodText: radiometric filter-binding kinase assay
# testParameters: compound 10.0 µM
Each item that follows carries a reported residual activity.

Known residual activity results, listed for orientation:
| smilesRecord | testedSystem | observedMeasurement |
| --- | --- | --- |
| O=C(N[C@@H](COc1ccc2[nH]c(=O)[nH]c2c1)c1ccccc1)c1cccn(Cc2ccc(F)c(F)c2)c1=O | TSSK1B (human) (UniProt Q9BXA7) | 86% |
| NC(=O)c1cc(-c2ccnc(NC3CCCCC3)c2)nc(N2CCNCC2)c1 | TSSK1B (human) (UniProt Q9BXA7) | 12% |
| C=CC(=O)N1CCC[C@@H](n2nc(-c3ccc(Oc4ccccc4)cc3)c3c(N)ncnc32)C1 | TSSK1B (human) (UniProt Q9BXA7) | 68% |
| COC(=O)/C=C/C(=O)OC | TSSK1B (human) (UniProt Q9BXA7) | 73% |

Next molecule, please.
State measured residual activity of the molecule `CNc1nc(-c2ccc3c(N)n[nH]c3c2)cc(N2C[C@@H](C(=O)NC3CCCCC3)CC[C@H]2C)n1` with TSSK1B (human) (UniProt Q9BXA7).
64%

----------
# residual activity listing for each entry below
# testedSystem: PRKCA (human) (UniProt P17252)
# assayMethodText: radiometric filter-binding kinase assay
# testParameters: compound 0.01 µM
Respond numerically; units are % and should not be typed.

Solved cases (3 shown):
| compound | observedMeasurement |
| --- | --- |
| COc1ccc(N(C(=O)Nc2c(C)cccc2C)c2cc(Nc3ccc(N4CCN(C)CC4)cc3)ncn2)c(OC)c1 | 102 |
| O=C(Nc1nc2cc(C(F)(F)F)cc(NC3CC3)n2n1)c1cccnc1 | 87 |
| COc1cc(O)c2c(c1)[C@H]1OC1C[C@H](O)[C@H](O)C(=O)/C=C\C[C@H](C)OC2=O (stereo partly specified) | 88 |

Identify the reported residual activity for the following entry. `CNc1nc(-c2ccc3c(N)n[nH]c3c2)cc(N2C[C@@H](C(=O)NC3CCCCC3)CC[C@H]2C)n1`
104

Answer with reported residual activity of CNC(=O)C1[C@H]2O[C@@](C)([C@@H]1N)n1c3ccccc3c3c4c(c5c6ccccc6n2c5c31)C(=O)NC4 (stereo partly specified)
79

Input `C/C(=C1/C(=O)Nc2ccc(NC(N)=O)cc21)c1ccc[nH]1` , output reported residual activity.
113

----------
# System: PRKAA1 or PRKAA2 (rat)
# assayMethodText: radiometric filter-binding kinase assay
# testParameters: compound 0.1 µM; accession and sequence are those of the human protein
Criterion: residual activity strictly under 90%. Met: true. Not met: false.

Item `CN1CCN(CCOc2cc(OC3CCOCC3)c3c(Nc4c(Cl)ccc5c4OCO5)ncnc3c2)CC1` : residual activity beneath 90%, strictly?
false

----------
Some molecules, each annotated with its measured residual activity.
# testedSystem: CSNK1G2 (human)
# assayMethodText: radiometric filter-binding kinase assay
# testParameters: compound 10.0 µM
Just the number in %, nothing appended.

| molecule | unitsOfMeasure | residual activity |
| --- | --- | --- |
| NCC(=O)Nc1ccc(-n2nc(C(F)(F)F)cc2-c2ccc3c(ccc4ccccc43)c2)cc1 | % | 90 |

// fetch residual activity; item: `Cc1ccc(-c2ccc3c(ccc4sc5c(c43)NC[C@@H](C)NC5=O)n2)cn1` ; system: CSNK1G2 (human)
102

Under CSNK1G2 (human), report residual activity for `CCNc1nc(Nc2cc(F)c(C(=O)N3CCOCC3)cc2OC)ncc1C(F)(F)F`
90

Give residual activity for `COC(=O)/C=C/C(=O)OC` tested on CSNK1G2 (human).
92

Provide residual activity, system CSNK1G2 (human), entry Nc1cccc2c1CN(C1CCC(=O)NC1=O)C2=O (centres undefined)
90

GET residual activity | system: CSNK1G2 (human) | item: `CCn1c(-c2nonc2N)nc2cncc(CNC3CCNCC3)c21`
92

State residual activity on CSNK1G2 (human). Entry: `CNc1nc(-c2ccc3c(N)n[nH]c3c2)cc(N2C[C@@H](C(=O)NC3CCCCC3)CC[C@H]2C)n1`
97

State measured residual activity of the molecule `COc1cc(C(=O)N2CCOCC2)c(F)cc1Nc1ncc(C(F)(F)F)c(NC2CC2)n1` with CSNK1G2 (human).
89

Report residual activity under test system CSNK1G2 (human) for CC1=C(CO)C(=O)O[C@@H]([C@@H](C)[C@H]2CC[C@H]3[C@@H]4C[C@H]5O[C@]56[C@@H](O)C=CC(=O)[C@]6(C)C4CC[C@]23C)C1 (some centres undefined) .
103

----------
Measured residual activity by item
# testedSystem: PHKG1 (human) (UniProt Q16816)
# Sequence (Q16816 whole entry, looked up): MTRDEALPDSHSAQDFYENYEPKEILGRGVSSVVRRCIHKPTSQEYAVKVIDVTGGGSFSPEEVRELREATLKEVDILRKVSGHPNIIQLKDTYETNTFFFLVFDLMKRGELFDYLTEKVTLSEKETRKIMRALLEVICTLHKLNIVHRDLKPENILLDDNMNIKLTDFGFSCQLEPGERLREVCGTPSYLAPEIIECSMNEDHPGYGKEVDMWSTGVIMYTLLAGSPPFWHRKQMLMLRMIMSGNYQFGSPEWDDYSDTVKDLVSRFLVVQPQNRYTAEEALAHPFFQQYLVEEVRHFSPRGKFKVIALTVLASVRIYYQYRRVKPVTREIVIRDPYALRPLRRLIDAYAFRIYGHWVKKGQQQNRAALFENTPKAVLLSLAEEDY
# assayMethodText: radiometric filter-binding kinase assay
# testParameters: compound 0.1 µM
Number in %, nothing else.

Example entries begin here.
| smilesRecord | residual activity, % |
| --- | --- |
| CN(C)C/C=C/C(=O)Nc1cccc(C(=O)Nc2ccc(Nc3nccc(-c4cccnc4)n3)cc2)c1 | 94 |
| NC(=O)c1cc(-c2ccnc(NC3CCCCC3)c2)nc(N2CCNCC2)c1 | 82 |

Consider the compound `c1ccc2c(-c3cnn4cc(-c5ccc(N6CCNCC6)cc5)cnc34)ccnc2c1` and give its recorded residual activity.
85

Identify the reported residual activity for the following entry. `Cn1c(=O)c2c(ncn2C)n(C)c1=O`
113

Please give measured residual activity of the following entry: `O=C(NCCCNc1nc(Nc2cccc(CN3CCOCC3)c2)ncc1C1CC1)C1CCC1`
78

Return the recorded residual activity value; entry: `CNc1nc(-c2ccc3c(N)n[nH]c3c2)cc(N2C[C@@H](C(=O)NC3CCCCC3)CC[C@H]2C)n1`
108

Supply reported residual activity belonging to this compound: `O=C(O)c1ccc(-c2c[nH]c3ncc(-c4ccccc4)cc23)cc1C1CCCC1`
34

// fetch residual activity given entry `CCn1c(-c2nonc2N)nc2cncc(CNC3CCNCC3)c21`
101

Return the recorded residual activity value; entry: `NC1(c2ccc(-c3nc4ccn5c(=O)[nH]nc5c4cc3-c3ccccc3)cc2)CCC1`
109

# return recorded residual activity for entry `O=C(Nc1ccccc1-c1cn2c(CN3CCNCC3)csc2n1)c1cnc2ccccc2n1`
96

----------
# testedSystem: MAPKAPK5 (human) (UniProt Q8IW41)
# Sequence (Q8IW41 whole entry, looked up): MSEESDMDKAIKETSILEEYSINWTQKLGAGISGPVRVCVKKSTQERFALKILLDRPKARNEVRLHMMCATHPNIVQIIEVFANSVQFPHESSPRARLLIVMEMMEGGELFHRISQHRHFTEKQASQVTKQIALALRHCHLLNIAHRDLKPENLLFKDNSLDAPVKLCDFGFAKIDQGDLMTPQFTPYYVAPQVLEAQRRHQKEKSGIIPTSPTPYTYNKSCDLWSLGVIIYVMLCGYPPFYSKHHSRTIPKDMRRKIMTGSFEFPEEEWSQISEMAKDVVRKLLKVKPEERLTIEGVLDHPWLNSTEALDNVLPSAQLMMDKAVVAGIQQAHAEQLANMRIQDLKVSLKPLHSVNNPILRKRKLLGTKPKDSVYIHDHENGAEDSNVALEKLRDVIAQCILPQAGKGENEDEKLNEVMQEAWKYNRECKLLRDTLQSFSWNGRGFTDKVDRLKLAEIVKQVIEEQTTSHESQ
# assayMethodText: radiometric filter-binding kinase assay
# testParameters: compound 10.0 µM
observable: residual activity (%)
The response must be a number in % with no trailing unit.

| compound | residual activity, % |
| --- | --- |
| COC(=O)/C=C/C(=O)OC | 96 |

Would you please give the reported residual activity of `Cc1ccc2c(c1)C(=O)[C@@]1(O)CCN(c3ccccc3)C1=N2` with MAPKAPK5 (human) (UniProt Q8IW41)?
82

Give reported residual activity for `O=C(NOC[C@H](O)CO)c1ccc(F)c(F)c1Nc1ccc(I)cc1Cl` (MAPKAPK5 (human) (UniProt Q8IW41))
99

State, for MAPKAPK5 (human) (UniProt Q8IW41), measured residual activity of the compound listed here: `Cc1cccc(Nc2nn(C)c3ncnc(N)c23)c1`
109

Please indicate recorded residual activity of `FC(F)(F)c1ccc(-c2ccc(Oc3cncc4sc(-c5nn[nH]n5)cc34)cc2)cc1` measured with MAPKAPK5 (human) (UniProt Q8IW41).
67

Find the measured residual activity of `O=C(O)c1cc(N=Nc2ccc(S(=O)(=O)Nc3ccccn3)cc2)ccc1O` with MAPKAPK5 (human) (UniProt Q8IW41) as test system.
90

Please tell me the measured residual activity for `Cc1ccc(Sc2cnc(Nc3cccc(Br)n3)s2)cc1C(=O)N1CCN(C(=O)CN)CC1` ; system: MAPKAPK5 (human) (UniProt Q8IW41).
96

Find residual activity for `NC1(c2ccc(-c3nc4ccn5c(=O)[nH]nc5c4cc3-c3ccccc3)cc2)CCC1` on MAPKAPK5 (human) (UniProt Q8IW41) and write it down.
102

Give reported residual activity for `Cc1ccc(=O)n(-c2ccccc2)c1` (MAPKAPK5 (human) (UniProt Q8IW41))
95

Using MAPKAPK5 (human) (UniProt Q8IW41) as the test system, report measured residual activity of `O=C1NC(=S)N[C@@H]1Cc1c[nH]c2ccccc12` .
100

Look up and report residual activity, with MAPKAPK5 (human) (UniProt Q8IW41) as system, for `NC(=O)c1ccc(-c2ccc(Oc3cncc4sc(-c5nn[nH]n5)cc34)cc2)cc1`
56

Enter residual activity (test system MAPKAPK5 (human) (UniProt Q8IW41)) for `NC(=O)c1c(NC(=O)C2CC2)sc2c1CCCC2`
62

Output reported residual activity of the compound `Cc1nc(-c2ccc(OCC(C)C)c(C#N)c2)sc1C(=O)O` on MAPKAPK5 (human) (UniProt Q8IW41).
82

Specify the recorded residual activity for `Oc1ccc2ccccc2c1SSc1c(O)ccc2ccccc12` , system: MAPKAPK5 (human) (UniProt Q8IW41).
102
